test system: HTT mRNA; assay: RT-qPCR splicing assay, HTT mRNA canonical (CJ) and alternative (AJ) junction; assay type: cell-based, human; conditions: Homo sapiens, HTT canonical junction mRNA, RT-qPCR; read-out: HTT CJ (decrease in CJ mRNA levels, IC50)
pIC50: −log10 of the molar value.
experimental-endpoint: pIC50

CNC(=O)c1nc(-c2cc3cn(C)nc3c(C)c2O)nc2ccc(N3C[C@H](C)N[C@@H](C)C3)cc12 [Compound 652]: 6.00 to 7.00
Cc1c(O)c(-c2ncc3nc(N4C[C@@H](C)N[C@@H](C)C4)ccc3n2)cc2cn(C)nc12 [Compound 526]: 6.00 to 7.00

Would you kindly look at the next entry?
[in] Which pIC50 value belongs to Cc1nc2cc(O)c(-c3ccc4nc(N5CCN[C@@H](C(C)C)C5)ccc4n3)cc2o1 [Compound 422] ?
[out] 6.00 to 7.00
